B1: KRT18 (parent)
chain: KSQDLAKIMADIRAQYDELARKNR

Variants of: B1
Assay: protein stability index of a GFP-peptide fusion (GPS, HEK-293T) (PSI 1-6); higher = more stable;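 note: lentivirally expressed fusions sorted by FACS into six bins by GFP to DsRed ratio, PSI derived from sequencing read proportions per bin multiplied by bin number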
Details: c terminus: a fixed tail appended
// NOT MET strictly below 3 in protein stability index; MET otherwise

{"columns": ["Variant Description", "Category"],
 "data": [
  ["E18A", "NOT MET"],
  ["S2C", "NOT MET"],
  ["R21D", "NOT MET"],
  ["R24T", "MET"],
  ["D17C", "NOT MET"],
  ["D4L", "NOT MET"],
  ["A14W", "NOT MET"],
  ["Q15I", "NOT MET"],
  ["I8K", "MET"],
  ["R24V", "NOT MET"],
  ["R21P", "MET"],
  ["L5G", "MET"],
  ["K7I", "NOT MET"],
  ["Y16P", "MET"],
  ["M9E", "MET"],
  ["D17G", "NOT MET"],
  ["L19V", "MET"],
  ["R13V", "NOT MET"]
]}
